Task for the reader: assign each of the following compounds its reported TGI.
# Test system: SF-295 CNS
# experiment-notes: NCI tumour cell line growth inhibition, 48 h
Give bare numbers, in µM.

Which TGI is listed for CCCCC[C@H]1CC=CC(=O)O1 ? 37.1

Let us move to another entry and its TGI.
Which TGI is listed for COc1cc(C2c3cc4c(cc3[C@@H](OCCN)[C@H]3COC(=O)C23)OCO4)cc(OC)c1O (stereo not given in full) ? 0.543

====

# Tested on: HOP-92 NSCLC
# experiment-notes: NCI tumour cell line growth inhibition, 48 h; in the data active = GI50 below about 0.43 µM; inactive = the rest
// allowed return values: yes = active, no = inactive

Please state the recorded outcome for this compound: O=C1/C(=C\c2ccccc2)CN(C(=O)c2ccccc2F)C/C1=C\c1ccccc1 no

Next:
Please state the recorded outcome for this compound: COc1cc2c(c(Br)c1N)-c1cc(Br)c(N)cc1C2=O no

Can you handle NCCCNCCCNc1nc2ccccc2c2[nH]c3ccccc3c12 next? yes

Can you handle CC[C@]12C=CCN3CC[C@]4(C(=C(C(=O)OC)C1)Nc1ccccc14)[C@@H]32 next? no

Can you handle COc1cc2nc(-c3ccc(Cl)cc3)cc(OCCCN3CCC(O)CC3)c2cc1OC next? no

Can you handle Cn1cc(-c2csc(-c3cn(C)c4ncccc34)n2)c2ccccc21 next? yes

Can you handle C=C1CCC2C3(C)COC(c4cccc(Cl)c4)OC3CCC2(C)C1/C=C/C1=CCOC1=O (configuration not stated) next? no

Can you handle N=C(N)c1ccc(-c2ccc(-c3ccccc3)o2)cc1 next? no

Can you handle Nc1nccc(C#Cc2cncnc2Nc2ccc(OCc3cccc(F)c3)c(Cl)c2)n1 next? no

Can you handle CCN(CC)c1ccc(/C=C/C2=[N+](C)c3ccccc3C2(C)C)cc1 next? no

Can you handle CCOC(=O)/C(=C/c1c(-c2ccccc2)[nH]c2ccccc12)C(=O)c1ccc(Cl)cc1 next? no

Can you handle CC/C(=C(/CC)c1ccc(OP(=O)([O-])[O-])cc1)c1ccc(OP(=O)([O-])[O-])cc1.N.N.N.N.[Pt+4].[Pt+4] next? no

====

// endpoint GI50 / system NCI-H460 lung

The following compounds have reported results that may help.
Which GI50 is listed for C=C(CNCCc1ccc(O)cc1)[C@@H]1CC[C@]2(CO)CC[C@]3(C)[C@H](CC[C@@H]4[C@@]5(C)CCC(NCCO)C(C)(C)[C@@H]5CC[C@]43C)[C@@H]12 (stereo not given in full) ? 1.75 µM

Can you handle CCN(CC)c1ccc(/C=C/C2=[N+](C)c3ccccc3C2(C)C)cc1 next? 0.312 µM

Can you handle O=[N+]([O-])c1ccc([I+]c2ccccc2)cc1 next? 1.78 µM

Can you handle CCOC(=O)/C(=C/c1c(-c2ccccc2)[nH]c2ccccc12)C(=O)c1ccc(Cl)cc1 next? 3.03 µM

Let us move to another entry and its GI50.
Which GI50 is listed for Oc1ccc(-c2nc(-c3ccc(F)cc3)c(-c3ccncc3)[nH]2)cc1 ? 18.8 µM

====

# System: IGROV1 ovarian
# experiment-notes: NCI tumour cell line growth inhibition, 48 h
measured-parameter: TGI

Which TGI is listed for Cc1cc2c(C)nn(Cc3ccc(Cl)cc3Cl)c2c(C#N)c1C ? > 100 µM

Can you handle O=c1[nH]nc(Cc2ccc(Cl)cc2)n1Nc1ccccc1 next? > 100 µM

Please look at the items below and tell me TGI for each one, in order.
1. O=C(c1no[n+]([O-])c1C(=O)c1csc2ccccc12)c1csc2ccccc12
2. Cn1cccc1C1CC(=O)N(CCC[Se]C#N)C1=O (stereo unspecified)
3. Cc1cc(C)c2c(c1C)CN1CN2Cc2c(C)c(C)cc(C)c21
4. O=S(=O)(Nc1ccc2ccc3cccc4ccc1c2c34)c1ccccc1
5. N/C(=N/O)c1cn(C2OC(CO)C(O)C2O)c2ncnc(NO)c12 (stereo unspecified)

["5.69 µM", "4.68 µM", "> 100 µM", "> 100 µM", "> 51 µM"]

Please look at the items below and tell me TGI for each one, in order.
1. CC(C)=CCc1c(O)c(CC=C(C)C)c2oc3c(c(=O)c2c1O)C(C=C(C)C)Oc1cc(O)ccc1-3 (stereo unspecified)
2. COc1cc2c(cc1OCCCN1CCN(CCCOc3cc4c(cc3OC)C(=O)C3CCC[C@H]3C=N4)CC1)N=C[C@@H]1CCCC1C2=O (stereo partly specified)
3. CC(=O)/C(=C\n1c(=S)[nH]c2ccc([N+](=O)[O-])cc21)C(=O)Nc1ccccc1C
4. COc1cccc(C2C3=C(COC3=O)N(CCO)c3cc4c(cc32)CCC4)c1 (stereo unspecified)
5. CCC/C(Cl)=N/OC(=O)Nc1cccc(F)c1

["20.2 µM", "> 23.6 µM", "> 100 µM", "0.0692 µM", "27.5 µM"]

Please look at the items below and tell me TGI for each one, in order.
1. CC1(C)CCC(CN2CCN(c3ccc(C(=O)NS(=O)(=O)c4ccc(NCC5CCOCC5)c([N+](=O)[O-])c4)c(Oc4cnc5[nH]ccc5c4)c3)CC2)=C(c2ccc(Cl)cc2)C1
2. Cn1cc(-c2nonc2-c2cn(C)c3ccc(Br)cc23)c2ccccc21
3. O=C(NCCS(=O)(=O)N1C(=O)C2CCCN2C(=O)[C@@H]1Cc1ccccc1)OCc1ccccc1 (stereo partly specified)

1. 9.57 µM
2. > 100 µM
3. > 100 µM

====

# System: 786-0 renal
# experiment-notes: NCI tumour cell line growth inhibition, 48 h
Task for the reader: assign each of the following compounds its reported TGI.
Numbers only, in µM.

The following compounds have reported results that may help.
Which TGI is listed for CCCCC[C@H]1CC=CC(=O)O1 ? 13.3

Can you handle C=C1C(=O)OC2C3C(=C)[C@@H](OC(C)=O)CC3C(C)=CC(OC(=O)C(C)(O)C(C)OC(C)=O)[C@@H]12 (stereo partly specified) next? 24.2

Can you handle NC(N)=NCCCS(=O)(=O)Nc1ccc(Nc2c3ccccc3nc3cc([N+](=O)[O-])ccc23)cc1 next? 53.2

Can you handle CCC/C(Cl)=N/OC(=O)Nc1cccc(F)c1 next? 3.2

Next:
Which TGI is listed for C/C(=N\NC(=S)Nc1ccccc1)c1ccccn1 ? 1.99

====

# System: KM12 colon
# experiment-notes: NCI tumour cell line growth inhibition, 48 h
measured-parameter: GI50

The following compounds have reported results that may help.
Observed GI50 on KM12 colon for N=C(N)c1ccc(-c2ccc(-c3ccccc3)o2)cc1 , please. 1.86 µM

Can you handle O=C(/C=C/c1cccnc1)/C=C/c1cccnc1 next? 0.428 µM

Can you handle C/C=C(\C)C(=O)O[C@@H]1C=CC(=O)O[C@H]1COC(=O)[C@H](C)O next? 13.3 µM

Can you handle COc1cc(-c2cn(-c3ccc(Cl)cc3)c(=O)n2-c2ccccc2)cc(OC)c1OC next? > 69.9 µM

Can you handle Cn1cc(-c2csc(-c3cn(C)c4ncccc34)n2)c2ccccc21 next? 0.242 µM

Can you handle NCCCNCCCNc1nc2ccccc2c2[nH]c3ccccc3c12 next? 0.684 µM

Can you handle CCOC(=O)/C(=C/c1c(-c2ccccc2)[nH]c2ccccc12)C(=O)c1ccc(Cl)cc1 next? 3.29 µM

Can you handle COc1cc2c(cc1OCCCN1CCN(CCCOc3cc4c(cc3OC)C(=O)C3CCC[C@H]3C=N4)CC1)N=C[C@@H]1CCCC1C2=O (stereo partly specified) next? 22.7 µM

Please look at the items below and tell me GI50 for each one, in order.
1. C#CCSc1nnnn1-c1ccc(Br)c(C)c1
2. C=C1CCC2C3(C)COC(c4cccc(Cl)c4)OC3CCC2(C)C1/C=C/C1=CCOC1=O (stereo unspecified)

["35 µM", "8.01 µM"]

Observed GI50 on KM12 colon for c1ccc(CNc2nc(Nc3ccc(-c4nc5ccccc5[nH]4)cc3)c3cn[nH]c3n2)cc1 , please. 1.9 µM

====

Task for the reader: assign each of the following compounds its reported TGI.
# Tested on: HCC-2998 colon
# experiment-notes: NCI tumour cell line growth inhibition, 48 h

The following compounds have reported results that may help.
Which TGI is listed for Nc1ncn([C@@H]2C=C(CO)C(O)C2O)c(=O)n1 (stereo not given in full) ? > 100 µM

Can you handle O=C1NC(c2ccccc2)C1N(Cc1ccccc1)Cc1ccccc1 (stereo not given) next? > 100 µM

Can you handle OCCC#Cc1ccccc1C#Cc1ccccc1 next? 45 µM

Please look at the items below and tell me TGI for each one, in order.
1. c1ccc(NC2(c3nnnn3C3CCCCC3)CCNCC2)cc1
2. CCOc1ccc(NC(=O)/C(=C/c2ccccc2)C(C)=O)cc1
3. Cc1ccc2c(c1)/C(=N\N=C/c1cn(C(C)C)c3ccccc13)C(=O)N2
4. CCOC(=O)c1c(-c2ccccc2)[nH]c2ccccc2c1=O
5. O=C1/C(=C/c2ccccc2Cl)COc2ccccc21
6. ClCc1nc2cc(Cl)ccc2o1

1. 27.3 µM
2. 27.1 µM
3. 14.9 µM
4. > 100 µM
5. 35.9 µM
6. 5.9 µM
